- Test system: LXFL 529
- procedure.details: NCI tumour cell line growth inhibition, 48 h
Active and inactive are the calls of the source. Cut-off read from the data, not from the text of the source: active = GI50 up to about 1.1 µM and inactive = higher.
property.label: GI50

Previously resolved entries follow.
- compound: "CN(C)/C(=N\\C#N)N(Cc1ccccc1)Cc1ccccc1"
  target.desc: "LXFL 529"
  GI50: "56.5 µM (inactive)"
- compound: "COC12CC(O)=C(C(C)=O)C(=O)C1(C)c1c(OC(C)=O)c(C)c(O)c(C(C)=O)c1O2 (stereo not given)"
  target.desc: "LXFL 529"
  GI50: "14.3 µM (inactive)"
- compound: "COc1cc(C(C)c2cc3c(cc2OCCCCOc2cc4c(cc2C(C)c2cc(OC)c(OC)c(OC)c2)OCO4)OCO3)cc(OC)c1OC (stereo not given)"
  target.desc: "LXFL 529"
  GI50: "33.3 µM (inactive)"

### Prompt So what's the measured GI50 for this one? CC1(C)CCc2cc3c(cc2O1)OC(C)(C)C1c2c(ccc4c2CCC(C)(C)O4)OC31 (stereo not given)
### Response > 100 µM (inactive)

### Prompt Also, CC1CC(c2ccc([N+](=O)[O-])cc2)=Nc2ccccc2S1 (stereo not given) please.
### Response 13.3 µM (inactive)

### Prompt Also, C/C(=N\N(C)C)C(CN1CCCCC1)C(c1ccccc1)c1c(O)c2ccccc2oc1=O (stereo not given) please.
### Response > 100 µM (inactive)

### Prompt Also, "CCCCN(CCCC)C(=O)C(=O)CC(=O)/C=C/c1ccccc1" please.
### Response > 100 µM (inactive)

### Prompt Also, "Cc1c[n+]2c3ccccc3c3ccccc3c2s1.[O-][Cl+3]([O-])([O-])[O-]" please.
### Response 3.16 µM (inactive)

### Prompt Also, CNC(C)Cc1ccc(O)cc1 (stereo not given) please.
### Response > 100 µM (inactive)

### Prompt Also, "O=c1c2cc(Br)ccc2nc(CNc2ccccc2)n1-c1ccccc1" please.
### Response 14.9 µM (inactive)

====

- Test system: OVCAR-8
- procedure.details: NCI tumour cell line growth inhibition, 48 h
Activity calls are given as the source filed them. No stated cut-off is given here; in the data, active = GI50 up to about 1.1 µM and inactive = higher. Square brackets hold non-standard residues; d marks the D form. Peptide text beside a SMILES is read from it. * marks the point of attachment. ξ: configuration not given here. NMeN = CN[C@@H](CC(N)=O)C(=O)O; NMeV = CN[C@H](C(=O)O)C(C)C; ξNMeV = CNC(C(=O)O)C(C)C; Boc = CC(C)(C)OC(=O)*; ξNMeA = CNC(C)C(=O)O
property.label: GI50

Previously resolved entries follow.
- compound: "COC(=O)C(C)N(C)C(=O)[C@H](CC(N)=O)N(C)C(=O)[C@@H]1CCCN1C(=O)[C@H](C(C)C)N(C)C(=O)C(C(C)C)N(C)C(=O)[C@@H](NC(=O)OC(C)(C)C)C(C)C (stereo partly specified) (Boc-V[ξNMeV][NMeV]P[NMeN][ξNMeA]-OMe)"
  target.desc: "OVCAR-8"
  GI50: "> 100 µM (inactive)"
- compound: "COCC1N=C(c2ccc(OC)c(OCc3ccccc3)c2OC)O[C@H]1c1ccccc1 (stereo partly specified)"
  target.desc: "OVCAR-8"
  GI50: "23.1 µM (inactive)"
- compound: "CC1=NC(C)(C)[N+]([O-])=C1"
  target.desc: "OVCAR-8"
  GI50: "> 10 µM (inactive)"

### Prompt So what's the measured GI50 for this one? "Cc1cc2nc3c(N)nn(CCN(C)C)c3nc2cc1C"
### Response 33.8 µM (inactive)

### Prompt Also, "CCOP(=O)(OCC)/C(C#N)=C/c1ccccn1" please.
### Response > 100 µM (inactive)

### Prompt Also, "O=C1Oc2ccccc2C(=O)/C1=C1/C=C(c2ccccc2)SS1" please.
### Response > 100 µM (inactive)

### Prompt Also, COc1ccc(C2NC(N)=C(C#N)C3=C2C(C)CCC3)cc1OC (stereo unspecified) please.
### Response 75.7 µM (inactive)

====

- System: RXF 631
- procedure.details: NCI tumour cell line growth inhibition, 48 h
The source made the active and inactive calls. Rule as the data show it: active = GI50 up to about 1.1 µM and inactive = higher.
GI50 for assorted molecules

Previously resolved entries follow.
- molecule: "COc1ccc2c(C3(O)CCNCC3)c[nH]c2c1"
  target.desc: "RXF 631"
  GI50: "> 100 µM (inactive)"
- molecule: "CCCCN(CCCC)C(=O)C(=O)CC(=O)/C=C/c1ccccc1"
  target.desc: "RXF 631"
  GI50: "> 100 µM (inactive)"
- molecule: "NCc1cccc(O)c1O"
  target.desc: "RXF 631"
  GI50: "> 100 µM (inactive)"
- molecule: "O=C1c2ccccc2C(=O)N1CCn1nc(-c2ccccc2)cc(-c2ccccc2)c1=O"
  target.desc: "RXF 631"
  GI50: "27.7 µM (inactive)"
- molecule: "COc1ccccc1C(=O)Nc1ccc(Cl)c(C(=O)OC(C)C)c1"
  target.desc: "RXF 631"
  GI50: "41.1 µM (inactive)"
- molecule: "c1cc2c(cnc3cscc32)s1"
  target.desc: "RXF 631"
  GI50: "> 100 µM (inactive)"
- molecule: "COc1cc(C(C)c2cc3c(cc2OCCCCOc2cc4c(cc2C(C)c2cc(OC)c(OC)c(OC)c2)OCO4)OCO3)cc(OC)c1OC (stereo not drawn)"
  target.desc: "RXF 631"
  GI50: "39.7 µM (inactive)"
- molecule: "O=C1C2Cc3ccccc3CN2C(=O)N1CN1CCN(CN2C(=O)C3Cc4ccccc4CN3C2=O)CC1 (stereo not drawn)"
  target.desc: "RXF 631"
  GI50: "> 100 µM (inactive)"
- molecule: "Nc1ncnc2c1ncn2CC(O)CO (stereo not drawn)"
  target.desc: "RXF 631"
  GI50: "> 100 µM (inactive)"
- molecule: "O=C(/C=C/c1ccccc1O)c1cccs1"
  target.desc: "RXF 631"
  GI50: "> 100 µM (inactive)"

### Prompt So what's the measured GI50 for this one? COC(=O)C1=C(c2ccc(OC)c(OC)c2)OC(c2cc(OC)c(OC)c(OC)c2)C1 (stereo not drawn)
### Response 94.2 µM (inactive)

### Prompt Also, "COCCOCCOCCOc1cccc2c1C(=O)c1cccc(OCCOCCOCCOC)c1C2=O" please.
### Response > 100 µM (inactive)

### Prompt Also, "C1=CC=C2NCCOCC/N=C3/C=CC=CC=C3NCCOCC/N=C\2C=C1" please.
### Response 30 µM (inactive)

====

GI50 for assorted compounds
- Tested on: SN12C
- procedure.details: NCI tumour cell line growth inhibition, 48 h
The source made the active and inactive calls. Cut-off read from the data, not from the text of the source: active = GI50 up to about 1.1 µM and inactive = higher.

### Prompt So what's the measured GI50 for this one? "COc1ccc([C@]23CCN(S(=O)(=O)c4ccc(C)cc4)[C@H]2[C@H](CO)C2(CC3)OCC(C)(C)CO2)cc1OC"
### Response > 100 µM (inactive)

### Prompt Also, COc1cccc(N2C(=O)CSC2c2c[nH]c3ccccc23)c1 (centres undefined) please.
### Response > 100 µM (inactive)

### Prompt Also, Nc1ncnc2c1ncn2C1OC(CO)CC1O (centres undefined) please.
### Response 25.6 µM (inactive)

### Prompt Also, "O=c1c2cc(-c3ccccc3)sc2nc2n1N=C(c1ccccc1)CS2" please.
### Response 27 µM (inactive)

### Prompt Also, COCOc1c(C(O[Si](C)(C)C(C)(C)C)c2cnc(Sc3ccccc3)n2C)ccc(OC)c1OC (centres undefined) please.
### Response 1.78 µM (inactive)

### Prompt Also, C=C(C)C(O)C(O)C[C@@H](C)C1CC[C@]23C[C@]12CCC1[C@@]2(C)CCC(OC(C)=O)C(C)(C)C2CC(OC2OC(CO)C(O)C(O)C2O)[C@]13C (some centres undefined) please.
### Response 16.8 µM (inactive)

### Prompt Also, "C1=CC(=NN=P(c2ccccc2)(c2ccccc2)c2ccccc2)C=C1" please.
### Response > 100 µM (inactive)

### Prompt Also, "COc1cc2ccc3c4c(OC)cc(OC)c(OC)c4c([O-])[n+](C)c3c2cc1OC" please.
### Response 1.74 µM (inactive)

====

- Tested on: SK-MEL-2
- procedure.details: NCI tumour cell line growth inhibition, 48 h
Activity calls are given as the source filed them. Rule as the data show it: active = GI50 up to about 1.1 µM and inactive = higher.
property.label: GI50

Previously resolved entries follow.
- molecule: "NC1CNC(=O)c2c(Cl)sc(Cl)c21 (stereo not given)"
  GI50: "> 100 µM (inactive)"
- molecule: "C=C(CCCCCCCCC)CC(=O)SCCNC(=O)CCNC(=O)C(O)C(C)(C)COP(=O)(O)OP(=O)(O)OCC1OC(n2cnc3c(N)ncnc32)C(O)C1OP(=O)(O)O (stereo not given)"
  GI50: "60.8 µM (inactive)"
- molecule: "CC(C)(C)OC(=O)NCC(=O)N(CCc1ccc(Cl)c(Cl)c1)CCN1CCCC1"
  GI50: "16.9 µM (inactive)"
- molecule: "Cc1c(-c2nc3ccccc3[nH]2)c(=O)n(-c2ccccc2)n1C"
  GI50: "> 100 µM (inactive)"

Let us examine a further case.
### Prompt So what's the measured GI50 for this one? CC(C)C1OCC(CO)CO1 (stereo not given)
### Response > 100 µM (inactive)
